- System: 521955-158-R2-J5-PDC complex spheroid growth, % test/control
- procedure_text: Anticancer human tumor 521955-158-R2-J5-PDC patient-derived pancreatic carcinoma cell line growth inhibition [Asc]; active = viability on the fitted dose curve at most 10% of control; inactive = the rest
- experimental_parameters: second compound 0.01 µM; first compound 10 µM
A correct response names exactly one class from class 1 (active), class 0 (inactive)

compound	answer_label
C=C(F)C(=O)N1CCN(c2nc(OCC3CCCN3C)nc3c2CCN(c2cccc4cccc(Cl)c24)C3)CC1CC#N (centres undefined) + CNC(C)C(=O)NC1CN(S(=O)(=O)c2cccc(S(=O)(=O)N3CCC4CCC(C(=O)NC(c5ccccc5)c5ccccc5)N4C(=O)C(NC(=O)C(C)NC)C3)c2)CCC2CCC(C(=O)NC(c3ccccc3)c3ccccc3)N2C1=O	class 1

Outcome? C#Cc1c(F)ccc2cc(O)cc(-c3ncc4c(N5CC6CCC(C5)N6)nc(OCC56CCCN5CC(F)C6)nc4c3F)c12 (centres undefined) + CNC(C)C(=O)NC1CN(S(=O)(=O)c2cccc(S(=O)(=O)N3CCC4CCC(C(=O)NC(c5ccccc5)c5ccccc5)N4C(=O)C(NC(=O)C(C)NC)C3)c2)CCC2CCC(C(=O)NC(c3ccccc3)c3ccccc3)N2C1=O
class 0

Outcome? O=C(c1cc(Cc2n[nH]c(=O)c3ccccc23)ccc1F)N1CCN(C(=O)C2CC2)CC1 + CNC(C)C(=O)NC1CN(S(=O)(=O)c2cccc(S(=O)(=O)N3CCC4CCC(C(=O)NC(c5ccccc5)c5ccccc5)N4C(=O)C(NC(=O)C(C)NC)C3)c2)CCC2CCC(C(=O)NC(c3ccccc3)c3ccccc3)N2C1=O
class 0

Outcome? C=CC(=O)N1CCN(c2nc(=O)n(-c3c(C)ccnc3C(C)C)c3nc(-c4c(O)cccc4F)c(F)cc23)C(C)C1 (centres undefined) + CNC(C)C(=O)NC1CN(S(=O)(=O)c2cccc(S(=O)(=O)N3CCC4CCC(C(=O)NC(c5ccccc5)c5ccccc5)N4C(=O)C(NC(=O)C(C)NC)C3)c2)CCC2CCC(C(=O)NC(c3ccccc3)c3ccccc3)N2C1=O
class 0

###

- System: 521955-158-R2-J5-PDC complex spheroid growth, % test/control
- procedure_text: Anticancer human tumor 521955-158-R2-J5-PDC cell line growth inhibition [Asc];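 note: spheroids exposed to agents for 7 days before readout; 100% = DMSO vehicle control viability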
- experimental_parameters: second compound 0.1 µM; first compound 0.1 µM; hits give low values
Criterion: viability, T/C strictly less than 60%. Met: yes (1). Not met: no (0).

compound	answer_label
CCN1CCN(Cc2ccc(Nc3ncc(F)c(-c4cc(F)c5nc(C)n(C(C)C)c5c4)n3)nc2)CC1 + Cc1c(S(C)(=O)=O)c(-c2cc(F)cc(N3CCN(c4ccc(NS(=O)(=O)c5ccc(NC(CCN6CCC(C(=O)OCCCP(=O)(O)O)CC6)CSc6ccccc6)c(S(=O)(=O)C(F)(F)F)c5)cc4)CC3)c2)c(-c2ccc(Cl)cc2)n1C(C)C	yes (1)
Cn1ncnc1[C@H]1c2n[nH]c(=O)c3cc(F)cc(c23)N[C@@H]1c1ccc(F)cc1 + Cc1c(S(C)(=O)=O)c(-c2cc(F)cc(N3CCN(c4ccc(NS(=O)(=O)c5ccc(NC(CCN6CCC(C(=O)OCCCP(=O)(O)O)CC6)CSc6ccccc6)c(S(=O)(=O)C(F)(F)F)c5)cc4)CC3)c2)c(-c2ccc(Cl)cc2)n1C(C)C	yes (1)
O=C(c1cc(Cc2n[nH]c(=O)c3ccccc23)ccc1F)N1CCN(C(=O)C2CC2)CC1 + Cc1c(S(C)(=O)=O)c(-c2cc(F)cc(N3CCN(c4ccc(NS(=O)(=O)c5ccc(NC(CCN6CCC(C(=O)OCCCP(=O)(O)O)CC6)CSc6ccccc6)c(S(=O)(=O)C(F)(F)F)c5)cc4)CC3)c2)c(-c2ccc(Cl)cc2)n1C(C)C	no (0)

Confirm or reject: viability, T/C of O=C(c1ccc(F)c(F)c1Nc1ccc(I)cc1F)N1CC(O)([C@@H]2CCCCN2)C1 + Cc1c(S(C)(=O)=O)c(-c2cc(F)cc(N3CCN(c4ccc(NS(=O)(=O)c5ccc(NC(CCN6CCC(C(=O)OCCCP(=O)(O)O)CC6)CSc6ccccc6)c(S(=O)(=O)C(F)(F)F)c5)cc4)CC3)c2)c(-c2ccc(Cl)cc2)n1C(C)C lies strictly below 60%
yes (1)

Confirm or reject: viability, T/C of CNC(C)C(=O)NC1CN(S(=O)(=O)c2cccc(S(=O)(=O)N3CCC4CCC(C(=O)NC(c5ccccc5)c5ccccc5)N4C(=O)C(NC(=O)C(C)NC)C3)c2)CCC2CCC(C(=O)NC(c3ccccc3)c3ccccc3)N2C1=O (stereo not drawn) + Cc1c(S(C)(=O)=O)c(-c2cc(F)cc(N3CCN(c4ccc(NS(=O)(=O)c5ccc(NC(CCN6CCC(C(=O)OCCCP(=O)(O)O)CC6)CSc6ccccc6)c(S(=O)(=O)C(F)(F)F)c5)cc4)CC3)c2)c(-c2ccc(Cl)cc2)n1C(C)C lies strictly below 60%
no (0)

Confirm or reject: viability, T/C of C#Cc1c(F)ccc2cc(O)cc(-c3ncc4c(N5CC6CCC(C5)N6)nc(OCC56CCCN5CC(F)C6)nc4c3F)c12 (stereo not drawn) + Cc1c(S(C)(=O)=O)c(-c2cc(F)cc(N3CCN(c4ccc(NS(=O)(=O)c5ccc(NC(CCN6CCC(C(=O)OCCCP(=O)(O)O)CC6)CSc6ccccc6)c(S(=O)(=O)C(F)(F)F)c5)cc4)CC3)c2)c(-c2ccc(Cl)cc2)n1C(C)C lies strictly below 60%
yes (1)

Confirm or reject: viability, T/C of O=C(c1cc(Cc2n[nH]c(=O)c3ccccc23)ccc1F)N1CCN(C(=O)C2CC2)CC1 + CNC(C)C(=O)NC1CN(S(=O)(=O)c2cccc(S(=O)(=O)N3CCC4CCC(C(=O)NC(c5ccccc5)c5ccccc5)N4C(=O)C(NC(=O)C(C)NC)C3)c2)CCC2CCC(C(=O)NC(c3ccccc3)c3ccccc3)N2C1=O lies strictly below 60%
no (0)

Confirm or reject: viability, T/C of O=C(c1ccc(F)c(F)c1Nc1ccc(I)cc1F)N1CC(O)([C@@H]2CCCCN2)C1 + CNC(C)C(=O)NC1CN(S(=O)(=O)c2cccc(S(=O)(=O)N3CCC4CCC(C(=O)NC(c5ccccc5)c5ccccc5)N4C(=O)C(NC(=O)C(C)NC)C3)c2)CCC2CCC(C(=O)NC(c3ccccc3)c3ccccc3)N2C1=O lies strictly below 60%
yes (1)

Confirm or reject: viability, T/C of C=C(F)C(=O)N1CCN(c2nc(OCC3CCCN3C)nc3c2CCN(c2cccc4cccc(Cl)c24)C3)CC1CC#N (stereo not drawn) + Cc1c(S(C)(=O)=O)c(-c2cc(F)cc(N3CCN(c4ccc(NS(=O)(=O)c5ccc(NC(CCN6CCC(C(=O)OCCCP(=O)(O)O)CC6)CSc6ccccc6)c(S(=O)(=O)C(F)(F)F)c5)cc4)CC3)c2)c(-c2ccc(Cl)cc2)n1C(C)C lies strictly below 60%
no (0)

###

- Test system: 521955-158-R2-J5-PDC complex spheroid growth, % test/control
- procedure_text: Anticancer human tumor 521955-158-R2-J5-PDC cell line growth inhibition [Asc];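 note: spheroids exposed to agents for 7 days before readout; 100% = DMSO vehicle control viability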
- experimental_parameters: second compound 0.01 µM; first compound 0.0316 µM; hits give low values
quantity: viability, T/C (%)
Kindly answer with a numeric value in %, unit omitted.

Supply reported viability, T/C belonging to this compound: O=C(c1cc(Cc2n[nH]c(=O)c3ccccc23)ccc1F)N1CCN(C(=O)C2CC2)CC1 + CNC(C)C(=O)NC1CN(S(=O)(=O)c2cccc(S(=O)(=O)N3CCC4CCC(C(=O)NC(c5ccccc5)c5ccccc5)N4C(=O)C(NC(=O)C(C)NC)C3)c2)CCC2CCC(C(=O)NC(c3ccccc3)c3ccccc3)N2C1=O
74.8

Supply reported viability, T/C belonging to this compound: C=C(F)C(=O)N1CCN(c2nc(OCC3CCCN3C)nc3c2CCN(c2cccc4cccc(Cl)c24)C3)CC1CC#N (stereo unspecified) + CNC(C)C(=O)NC1CN(S(=O)(=O)c2cccc(S(=O)(=O)N3CCC4CCC(C(=O)NC(c5ccccc5)c5ccccc5)N4C(=O)C(NC(=O)C(C)NC)C3)c2)CCC2CCC(C(=O)NC(c3ccccc3)c3ccccc3)N2C1=O
87.1

Supply reported viability, T/C belonging to this compound: Cn1ncnc1[C@H]1c2n[nH]c(=O)c3cc(F)cc(c23)N[C@@H]1c1ccc(F)cc1 + CNC(C)C(=O)NC1CN(S(=O)(=O)c2cccc(S(=O)(=O)N3CCC4CCC(C(=O)NC(c5ccccc5)c5ccccc5)N4C(=O)C(NC(=O)C(C)NC)C3)c2)CCC2CCC(C(=O)NC(c3ccccc3)c3ccccc3)N2C1=O
65.4

Supply reported viability, T/C belonging to this compound: NC1CCC(NC2CC2c2ccccc2)CC1 (stereo unspecified) + CNC(C)C(=O)NC1CN(S(=O)(=O)c2cccc(S(=O)(=O)N3CCC4CCC(C(=O)NC(c5ccccc5)c5ccccc5)N4C(=O)C(NC(=O)C(C)NC)C3)c2)CCC2CCC(C(=O)NC(c3ccccc3)c3ccccc3)N2C1=O
71.6

Supply reported viability, T/C belonging to this compound: COc1c(OCCCN2CCOCC2)ccc2c3n(c(=NC(=O)c4cnc(N)nc4)nc12)CCN3 + CNC(C)C(=O)NC1CN(S(=O)(=O)c2cccc(S(=O)(=O)N3CCC4CCC(C(=O)NC(c5ccccc5)c5ccccc5)N4C(=O)C(NC(=O)C(C)NC)C3)c2)CCC2CCC(C(=O)NC(c3ccccc3)c3ccccc3)N2C1=O
38.4

Supply reported viability, T/C belonging to this compound: CCN1CCN(Cc2ccc(Nc3ncc(F)c(-c4cc(F)c5nc(C)n(C(C)C)c5c4)n3)nc2)CC1 + CNC(C)C(=O)NC1CN(S(=O)(=O)c2cccc(S(=O)(=O)N3CCC4CCC(C(=O)NC(c5ccccc5)c5ccccc5)N4C(=O)C(NC(=O)C(C)NC)C3)c2)CCC2CCC(C(=O)NC(c3ccccc3)c3ccccc3)N2C1=O
71.2

The values you see were collected from PubChem BioAssay AID1963430.
